// data source = patent US10131670B2

# Tested System: CFTR (Homo sapiens, UniProt P13569)
# Test Details: Ussing Chamber Electrophysiology Assay of CFTR Potentiation in CF Bronchial Epithelial Cells
# Experimental Conditions: primary CF hBE cells, short-circuit current, scaled to DMSO (0%) and positive control potentiator (100%)
Kindly supply the reported pEC50 values for the records listed here.
Give bare numbers, as −log10 of the molar value.

Some solved entries appear below for comparison.
CCC(c1cn(-c2ccc(F)cc2F)nn1)c1c(C#N)c(-c2cnc(C(F)(F)F)nc2)c2c(N)ncnn12 (single isomer, unassigned) [Example 7] | 7.48
CCC(c1cn(-c2ccc(F)c(F)c2)nn1)c1c(C#N)c(-c2cnc(C(F)(F)F)nc2)c2c(N)ncnn12 (single isomer, unassigned) | 7.55
CCC(c1cn(-c2ccccc2F)nn1)c1cc(-c2cnc(C(F)(F)F)nc2)c2c(N)ncnn12 (single isomer, unassigned) [Example 58] | 7.44
CC(c1cn(-c2ccccc2F)nn1)c1c(C#N)c(-c2cnc(C(F)(F)F)nc2)c2c(N)ncnn12 (single isomer, unassigned) [Example 2] | 7.95

Now look at this one.
Measured pEC50 of CCC(c1cnn(-c2ccc(F)cc2F)c1)c1c(C#N)c(-c2cnc(C(F)(F)F)nc2)c2c(N)ncnn12 (single isomer, unassigned) [Example 16] : 9.38
